Cited source: patent US20250326771A1

system: Jurkat HIV-luciferase clones; experiment: Jurkat latency reversal assay; type: cell-based; details: Homo sapiens, 48 h; Jurkat latency reversal assay potency; read-out: Jurkat pEC50 (converted)
Field: EC50. Provide a value for each of the compounds that follow.

# value of EC50, Jurkat HIV-luciferase clones, item C[C@@H]1CN(CC(=O)N2CC(C)(C)c3[nH]c(=O)c(Cc4ccc(Cl)cc4)cc32)[C@@H](CN2CCO[C@H](C(=O)NCc3ccc(CNC(=O)[C@@H]4CN(C[C@H]5CN[C@H](C)CN5CC(=O)N5CC(C)(C)c6[nH]c(=O)c(Cc7ccc(Cl)cc7)cc65)CCO4)cc3)C2)CN1 = 0.49 to 12.6 nM

// EC50 (Jurkat HIV-luciferase clones) for C[C@@H]1CN(CC(=O)N2CC(C)(C)c3[nH]c(=O)c(Cc4ccc(F)cc4)cc32)[C@@H](CN2CCC[C@H](NC(=O)CCCCCCCCCCCCC(=O)N[C@H]3CCCN(C[C@H]4CN[C@H](C)CN4CC(=O)N4CC(C)(C)c5[nH]c(=O)c(Cc6ccc(F)cc6)cc54)C3)C2)CN1 = 63.1 to 316 nM

Entry C[C@@H]1CN(CC(=O)N2CC(C)(C)c3c2cc(Cc2ccc(F)cc2)c(=O)n3C)[C@@H](CN2CCO[C@H](COCc3ccc(COC[C@@H]4CN(C[C@H]5CN[C@H](C)CN5CC(=O)N5CC(C)(C)c6c5cc(Cc5ccc(F)cc5)c(=O)n6C)CCO4)cc3)C2)CN1 under Jurkat HIV-luciferase clones had EC50 of 63.1 to 316 nM

The reported Jurkat HIV-luciferase clones EC50 of C[C@@H]1CN(CC(=O)N2CC(C)(C)c3[nH]c(=O)c(Cc4ccc(F)cc4)cc32)[C@@H](CN2CCO[C@@H](C(=O)NCc3ccc(CNC(=O)[C@H]4CN(C[C@H]5CN[C@H](C)CN5CC(=O)N5CC(C)(C)c6[nH]c(=O)c(Cc7ccc(F)cc7)cc65)CCO4)cc3)C2)CN1 is 12.6 to 63.1 nM

* * *

molecular target: cIAP1-BIR3 (Homo sapiens (Human)); experiment: BIR binding assay (FRET competition), cIAP1 BIR3
Sequence (Q13490 253-363): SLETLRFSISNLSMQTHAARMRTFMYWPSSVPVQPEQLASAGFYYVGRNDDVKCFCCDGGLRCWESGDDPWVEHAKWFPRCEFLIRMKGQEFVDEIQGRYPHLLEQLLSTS
Property measured: IC50

So, C[C@@H]1CN(CC(=O)N2CC(C)(C)c3ncc(Cc4ccc(F)cc4)cc32)[C@@H](CN2CCO[C@H](COc3cccc(OC[C@@H]4CN(C[C@H]5CN[C@H](C)CN5CC(=O)N5CC(C)(C)c6ncc(Cc7ccc(F)cc7)cc65)CCO4)c3)C2)CN1 ? Its IC50 was 7.94 to 15.8 nM

The reported IC50 of the molecule C[C@@H]1CN(CC(=O)N2CC(C)(C)c3[nH]c(=O)c(Cc4ccc(F)cc4)cc32)[C@@H](CN2CCC(CN(C)C(=O)Cc3cccc(C(=O)N(C)CC4CCN(C[C@H]5CN[C@H](C)CN5CC(=O)N5CC(C)(C)c6[nH]c(=O)c(Cc7ccc(F)cc7)cc65)CC4)c3)CC2)CN1 was 1.38 to 7.94 nM

Measured IC50 of C[C@@H]1CN(CC(=O)N2CC(C)(C)c3[nH]c(=O)c(Cc4ccc(F)cc4F)cc32)[C@@H](CN2CCO[C@H](COc3cccc(OC[C@@H]4CN(C[C@H]5CN[C@H](C)CN5CC(=O)N5CC(C)(C)c6[nH]c(=O)c(Cc7ccc(F)cc7F)cc65)CCO4)c3)C2)CN1 : 15.8 to 31.6 nM

Record C[C@@H]1CN(CC(=O)N2CC(C)(C)c3[nH]c(=O)c(Cc4ccc(F)cc4)cc32)[C@@H](CN2CCO[C@H](C(=O)NCCCNC(=O)[C@@H]3CN(C[C@H]4CN[C@H](C)CN4CC(=O)N4CC(C)(C)c5[nH]c(=O)c(Cc6ccc(F)cc6)cc54)CCO3)C2)CN1 , field IC50: 7.94 to 15.8 nM

In plain terms, C[C@@H]1CN(CC(=O)N2CC(C)(C)c3[nH]c(=O)c(Cc4ccc(Cl)cc4O)cc32)[C@@H](CN2CCO[C@H](C(=O)NCc3ccc(CNC(=O)[C@@H]4CN(C[C@H]5CN[C@H](C)CN5CC(=O)N5CC(C)(C)c6[nH]c(=O)c(Cc7ccc(Cl)cc7O)cc65)CCO4)cc3)C2)CN1 has a documented IC50 of 1.38 to 7.94 nM

Per the records, this molecule ( C[C@@H]1CN(CC(=O)N2CC(C)(C)c3[nH]c(=O)c(Cc4ccc(F)cc4)cc32)[C@@H](CN2CCO[C@H](COc3ccc(C(=O)c4ccc(OC[C@@H]5CN(C[C@H]6CN[C@H](C)CN6CC(=O)N6CC(C)(C)c7[nH]c(=O)c(Cc8ccc(F)cc8)cc76)CCO5)cc4)cc3)C2)CN1 ) has IC50 equal to 15.8 to 31.6 nM

Value of measured IC50 for the entry C[C@@H]1CN(CC(=O)N2CC(C)(C)c3[nH]c(=O)c(Cc4ccc(Cl)cc4C(=O)N(C)C)cc32)[C@@H](CN2CCO[C@H](C(=O)NCc3ccc(CNC(=O)[C@@H]4CN(C[C@H]5CN[C@H](C)CN5CC(=O)N5CC(C)(C)c6[nH]c(=O)c(Cc7ccc(Cl)cc7C(=O)N(C)C)cc65)CCO4)cc3)C2)CN1 : 7.94 to 15.8 nM

# IC50 of C[C@@H]1CN(CC(=O)N2CC(C)(C)c3[nH]c(=O)c(Cc4ccc(F)cc4)cc32)[C@@H](CN2CCC(CC(=O)NCc3ccc(CNC(=O)CC4CCN(C[C@H]5CN[C@H](C)CN5CC(=O)N5CC(C)(C)c6[nH]c(=O)c(Cc7ccc(F)cc7)cc65)CC4)cc3)CC2)CN1 = 7.94 to 15.8 nM

// Cc1cc(Cl)ccc1Cc1cc2c([nH]c1=O)C(C)(C)CN2C(=O)CN1C[C@@H](C)NC[C@@H]1CN1CCO[C@H](C(=O)NCc2ccc(CNC(=O)[C@@H]3CN(C[C@H]4CN[C@H](C)CN4CC(=O)N4CC(C)(C)c5[nH]c(=O)c(Cc6ccc(Cl)cc6C)cc54)CCO3)cc2)C1 : IC50 value = 15.8 to 31.6 nM

IC50 in this record for C[C@@H]1CN(CC(=O)N2CC(C)(C)c3[nH]c(=O)c(Cc4ccc(F)cc4)cc32)[C@@H](CN2CCO[C@H](COc3ccc(F)c(OC[C@@H]4CN(C[C@H]5CN[C@H](C)CN5CC(=O)N5CC(C)(C)c6[nH]c(=O)c(Cc7ccc(F)cc7)cc65)CCO4)c3)C2)CN1 : 1.38 to 7.94 nM
